The reported measurements were obtained from patent US4791139A.

The reader will find reported pest or weed control at 250 ppm values listed item by item below.
Test system: Musca domestica (houseflies - adults)
Experiment: Knockdown test, houseflies - adults (MD/KD), Cotton wool/sugar
Type: in vivo
Conditions: 250 ppm, 4 hours, read-out: MD/KD grading of knockdown

These recorded examples may help you get a feel for the data.
compound | pest or weed control at 250 ppm
CCOc1ccc(C(C/C=C\c2cccc(Oc3ccccc3)c2)C(F)(F)F)cc1 (stereo not drawn) | 80 to 100%
CCOc1ccc(C(CC=Cc2ccc(F)c(Oc3ccccc3)c2)C(F)(F)F)cc1 (stereo not drawn) | 80 to 100%
CCOc1ccc(/C(=C\C=C/c2ccc(F)c(Oc3ccccc3)c2)C(F)(F)F)cc1 | < 50%
CCOc1ccc(C(=CCCc2cccc(Oc3ccccc3)c2)C(F)(F)C(F)(F)F)cc1 | < 50%
CC(C)(C)c1ccc(C(CCCc2cccc(Oc3ccccc3)c2)C(F)(F)F)cc1 (racemic) | < 50%

For the compound CCOc1ccc(C(CCCc2ccc(F)c(Oc3ccccc3)c2)C(F)(F)F)cc1 (racemic) , give its reported pest or weed control at 250 ppm.
80 to 100%
